Sourced from ChEMBL document CHEMBL3507680

Measured cytotoxicity at 70.5 h of individual entries
- experimental_details: Human HepG2 cell viability assay in 384 well format
- Assay type: toxicity, cell-based
- Set-up: dose 125 nL, time 70.5 hour; concentration not given beside the values
- applied_conditions: HepG2 cells, read-out: Inhibition
Express it in %; write the number only.

Please review the entries below; each comes with its answer.
Cn1cc(CN2C[C@@H]3[C@@H](C2)OCC(=O)N3Cc2ccncc2)cn1 ... -6.23
Cc1nc(C)n(C2CCCN(C(=O)c3ccn(C(C)C)n3)C2)n1 (stereo unspecified) ... -6.2
Cc1nc(C2(NCC(=O)NC(=O)NCC(F)(F)F)CCCCC2)no1 ... 13.9
CN(CCO)Cc1nnc(C2CCN(CC(C)(C)C)CC2)n1C ... -4.91

// next item, cytotoxicity at 70.5 h requested
Which cytotoxicity at 70.5 h is listed for O=C([C@@H]1CCCO1)N1CCn2c(Cn3cccn3)cnc2C1 ? -0.354

====

- experimental_details: Human HepG2 cell viability assay in 384 well format
- Format: toxicity, cell-based
- Design: dose 125 nL, time 70.5 hour; concentration not given beside the values
- applied_conditions: HepG2 cells, read-out: Inhibition
endpoint: cytotoxicity at 70.5 h (%)
Expressed in %, but write only the number.

For orientation, consider the following solved cases.
CC(c1ccccc1)N1CCC(NC(=O)CCc2ccsc2)CC1 (configuration not stated) ... -7.82
CCc1ccc(C(=O)N2CCCN(Cc3csc(CC)n3)CC2)o1 ... 6.45

From here, focus on the item given below.
If you can, please state the reported cytotoxicity at 70.5 h value of COc1ccc(Br)c(C(=O)NCCNc2ccc(C(F)(F)F)cn2)c1 . -13.7

====

- experimental_details: Human HepG2 cell viability assay in 384 well format
- Assay type: toxicity, cell-based
- Parameters: dose 125 nL, time 70.5 hour; concentration not given beside the values
- applied_conditions: HepG2 cells, read-out: Inhibition
endpoint: cytotoxicity at 70.5 h (%)
Output spec: scalar in %, unitless text.

// worked examples, cytotoxicity at 70.5 h included
CC(C)c1ncncc1C(=O)N1CCCN(Cc2cccs2)CC1 ... -18.9
COc1ccc(C)nc1NC(=O)Cc1c(C)nn(C)c1C ... -0.279
CC(C)(CNC(=O)c1ccc(Cl)o1)NC(=O)OC(C)(C)C ... 22.2
O=C(CSC1CCc2ccccc2NC1=O)Nc1ccc(CCO)cc1 (stereo not drawn) ... -1.18

I am curious: what cytotoxicity at 70.5 h value has been reported for CC(C)(C)c1cnc(CN2C(=O)CC3(CCSC3)C2=O)o1 (stereo not drawn) ? -4.79

====

Reported cytotoxicity at 70.5 h values are given for each entry in this list.
- experimental_details: Human HepG2 cell viability assay in 384 well format
- Type: toxicity, cell-based
- Set-up: dose 125 nL, time 70.5 hour; concentration not given beside the values
- applied_conditions: HepG2 cells, read-out: Inhibition
Answer in %, number only, no unit symbol.

NC(=O)CC1CCN(S(=O)(=O)N2CCCC2c2ccco2)CC1 (configuration not stated) ... -5.7

# cytotoxicity at 70.5 h lookup, item CC(=O)N1CCCC(c2ccnc(N(C)C)n2)C1 (configuration not stated) -12.5

Follow-up item: COc1ccccc1-c1cc(NC(=O)CCC2CCCO2)[nH]n1 (configuration not stated) 36.9

Now consider CN(C)CC1(O)CCN(S(=O)(=O)c2ccc(F)cc2)C1 (configuration not stated) and answer again. 30.9
